Tested on: phospho-ERK in melanoma derived WM-266-4 cells
Measurement Notes: Mechanistic cellular assay for Raf kinase activity (phospho-ERK, Bio-Plex)
Type: cell-based
Experimental Conditions: Homo sapiens, treated 1-2 hr at 37° C., serum free medium, read-out: pERK EC50
Measure: EC50

> print(dat)
                                   compound                     target.or.test.system          result
1  C[C@@H](NC(=O)c1cnc(N)n1C1CC1)c1ncc(C(=O)Nc2cc(C(F)(F)F)c(Cl)cn2)s1  phospho-ERK in melanoma derived WM-266-4 cells  100 to 1000 nM
2  Cc1ncc(C(=O)N[C@H](C)c2ncc(C(=O)Nc3cc(C(F)(F)F)c(Cl)cn3)s2)n1C(C)C  phospho-ERK in melanoma derived WM-266-4 cells        ≤ 100 nM
3  CC(NC(=O)c1cc2c(cn1)ncn2C)c1cnc(Nc2cccc(C3(C)CC3)c2)s1 (stereo not drawn)  phospho-ERK in melanoma derived WM-266-4 cells  100 to 1000 nM
4  CC(NC(=O)c1cc2c(cn1)ncn2C)c1cnc(Nc2ccc(Cl)c(S(=O)(=O)C(F)(F)F)c2)cn1 (stereo not drawn)  phospho-ERK in melanoma derived WM-266-4 cells        ≤ 100 nM
5  CC(NC(=O)c1cc2c(cn1)ncn2C)c1cnc(Nc2cccc(C(C)(C)C)c2)s1 (stereo not drawn)  phospho-ERK in melanoma derived WM-266-4 cells        ≤ 100 nM

stdin: Which measured EC50 belongs to CC(NC(=O)c1cccc(-c2cccnc2)c1)c1ncc(C(=O)Nc2cc(C(F)(F)F)c(Cl)cn2)s1 (stereo not drawn) , tested on phospho-ERK in melanoma derived WM-266-4 cells?
stdout: 100 to 1000 nM

stdin: Requested read-out EC50, target or system phospho-ERK in melanoma derived WM-266-4 cells, entry CC(NC(=O)c1cc2c(cn1)ncn2C1CCCC1)c1cnc(Nc2ccc(C(F)(F)F)cc2)s1 (stereo not drawn)
stdout: ≤ 100 nM

stdin: Under phospho-ERK in melanoma derived WM-266-4 cells: EC50 value of CC(NC(=O)c1cc(N)ccn1)c1ncc(C(=O)Nc2cc(C(F)(F)F)c(Cl)cn2)s1 (stereo not drawn) ?
stdout: 1000 to 10000 nM

stdin: Notebook entry, phospho-ERK in melanoma derived WM-266-4 cells assay: EC50 of CC(NC(=O)c1cc2c(cn1)ncn2C1CCC1)c1cnc(Nc2ccc(C(F)(F)F)cc2)cn1 (stereo not drawn) = ?
stdout: ≤ 100 nM

stdin: API: value(readout= EC50, system= phospho-ERK in melanoma derived WM-266-4 cells, query= C[C@@H](NC(=O)c1cccc(Br)n1)c1ncc(C(=O)Nc2cc(C(F)(F)F)c(Cl)cn2)s1 )
stdout: 1000 to 10000 nM

stdin: EC50 of Cc1ccc(NC(=O)c2cc([C@H](C)NC(=O)c3cnn4ccccc34)on2)cc1C(F)(F)F on phospho-ERK in melanoma derived WM-266-4 cells?
stdout: 100 to 1000 nM

----------
// reported EC50 for each item listed
Test system: phospho-ERK in melanoma derived WM-266-4 cells
Measurement Notes: Mechanistic cellular assay for Raf kinase activity (phospho-ERK, Bio-Plex)
Type: cell-based
Experimental Conditions: Homo sapiens, treated 1-2 hr at 37° C., serum free medium, read-out: pERK EC50

stdin: Look up EC50: CC(NC(=O)c1cnc2nccn2c1)c1cnc(Nc2ccc(C(F)(F)F)cc2)s1 (stereo not shown)
stdout: 1 to 10 µM

stdin: Give the measured EC50 of CCn1cnc2cnc(C(=O)NC(C)c3cnc(Nc4ccc(C(F)(F)F)cc4)s3)cc21 (stereo not shown) .
stdout: ≤ 0.1 µM

stdin: Which value of EC50 has been reported for C[C@@H](NC(=O)c1cc2c(cn1)ncn2[C@@H]1CCN(C(=O)OC(C)(C)C)C1)c1cnc(Nc2ccc(C(F)(F)F)cc2)s1 in the records?
stdout: 0.1 to 1 µM

stdin: Can you look up the measured EC50 of Cc1nc(Nc2ccc(C(F)(F)F)cc2)sc1C(C)NC(=O)c1cc2c(cn1)ncn2C (stereo not shown) for me?
stdout: 1 to 10 µM

stdin: Reported EC50 for CNCc1c(C(=O)N[C@H](C)c2ncc(C(=O)Nc3cc(C(F)(F)F)c(Cl)cn3)s2)cnn1C : what is it?
stdout: 1 to 10 µM

stdin: Which measured EC50 value corresponds to CC(NC(=O)c1cc2c(cn1)ncn2C)c1cnc(Nc2ccc(C(F)(F)F)cc2Cl)s1 (stereo not shown) ?
stdout: ≤ 0.1 µM

stdin: Which EC50 is listed for CC(NC(=O)c1cnc2n1CCN(C(=O)OC(C)(C)C)C2)c1cnc(Nc2ccc(C(F)(F)F)cc2)s1 (stereo not shown) ?
stdout: 1 to 10 µM
